- target_or_test_system: MAO-B (Homo sapiens)
- Sequence (P27338 whole entry): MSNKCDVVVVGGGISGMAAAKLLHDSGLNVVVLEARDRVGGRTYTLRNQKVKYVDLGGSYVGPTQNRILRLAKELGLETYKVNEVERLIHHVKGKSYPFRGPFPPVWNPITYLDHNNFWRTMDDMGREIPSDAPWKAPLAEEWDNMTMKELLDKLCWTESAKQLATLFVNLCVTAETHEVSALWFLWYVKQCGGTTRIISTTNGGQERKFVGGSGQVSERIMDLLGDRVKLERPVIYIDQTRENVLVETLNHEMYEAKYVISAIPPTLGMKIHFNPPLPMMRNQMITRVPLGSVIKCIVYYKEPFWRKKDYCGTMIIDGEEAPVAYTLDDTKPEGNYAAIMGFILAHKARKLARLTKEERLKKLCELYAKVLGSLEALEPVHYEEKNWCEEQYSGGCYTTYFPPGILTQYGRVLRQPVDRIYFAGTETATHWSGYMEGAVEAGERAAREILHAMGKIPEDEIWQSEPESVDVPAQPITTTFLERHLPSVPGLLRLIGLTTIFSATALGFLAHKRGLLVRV
- assay_method_text: Inhibition of MAO-B (unknown origin) at 10 uM relative to control
value_type: inhibition at 10 µM (%)

molecule	target_or_test_system	measured_number
COc1cc(OC)cc(-n2cc(CN[C@@H]3C[C@H]3c3ccccc3)nn2)c1	MAO-B (Homo sapiens)	67
COc1ccc(OC)c(-n2cc(CN[C@@H]3C[C@H]3c3ccccc3)nn2)c1	MAO-B (Homo sapiens)	58
COc1cccc(-n2cc(CN[C@@H]3C[C@H]3c3ccc(F)c(F)c3)nn2)c1	MAO-B (Homo sapiens)	65
Fc1ccc([C@@H]2C[C@H]2NCc2cn(-c3ccc(C(F)(F)F)cc3)nn2)cc1F	MAO-B (Homo sapiens)	82
FC(F)(F)c1cccc(-n2cc(CN[C@@H]3C[C@H]3c3ccccc3)nn2)c1	MAO-B (Homo sapiens)	94
COc1cccc(-n2cc(CN[C@@H]3C[C@H]3c3ccccc3)nn2)c1	MAO-B (Homo sapiens)	54
COc1ccc(OC)c(-n2cc(CN[C@@H]3C[C@H]3c3ccc(F)c(F)c3)nn2)c1	MAO-B (Homo sapiens)	48
COc1ccc(-n2cc(CN[C@@H]3C[C@H]3c3ccc(F)c(F)c3)nn2)cc1	MAO-B (Homo sapiens)	64
FC(F)(F)c1cc(-n2cc(CN[C@@H]3C[C@H]3c3ccccc3)nn2)cc(C(F)(F)F)c1	MAO-B (Homo sapiens)	88
COc1ccccc1-n1cc(CN[C@@H]2C[C@H]2c2ccccc2)nn1	MAO-B (Homo sapiens)	44
COc1ccc(-n2cc(CN[C@@H]3C[C@H]3c3ccccc3)nn2)cc1	MAO-B (Homo sapiens)	55
Fc1ccc([C@@H]2C[C@H]2NCc2cn(-c3cc(C(F)(F)F)cc(C(F)(F)F)c3)nn2)cc1F	MAO-B (Homo sapiens)	35
COc1ccccc1-n1cc(CN[C@@H]2C[C@H]2c2ccc(F)c(F)c2)nn1	MAO-B (Homo sapiens)	51
Fc1ccc([C@@H]2C[C@H]2NCc2cn(-c3cccc(C(F)(F)F)c3)nn2)cc1F	MAO-B (Homo sapiens)	43
COc1cc(OC)cc(-n2cc(CN[C@@H]3C[C@H]3c3ccc(F)c(F)c3)nn2)c1	MAO-B (Homo sapiens)	42
c1ccc([C@@H]2C[C@H]2NCc2cn(-c3ccccc3)nn2)cc1	MAO-B (Homo sapiens)	76
FC(F)(F)c1ccc(-n2cc(CN[C@@H]3C[C@H]3c3ccccc3)nn2)cc1	MAO-B (Homo sapiens)	86
